B1: Hairpin Ribozyme (parent)
chain: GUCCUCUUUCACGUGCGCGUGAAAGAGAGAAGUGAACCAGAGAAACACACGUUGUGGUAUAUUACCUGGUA

Variants of: B1
run.description: self-cleavage, relative activity (ratio to wild type); higher = more cleavage; co-transcriptional
value.kind: self-cleavage
// no unit, no text: just the number

Worked examples follow.
Quick one: self-cleavage of G1A U8C ?
0.265

Would you mind doing C4A A64G as well?
0.134

Here is the next variant: C18A G21U
0.669

***
Fill blank: measured self-cleavage of the variant U5A G17A is ____.
0.435

And A39C U53C ?
0.42

Here is the next variant: A31G A44U
0.205

Now consider U5A U9C .
0.179

What do we get for A11G A47G ?
0.0539

Do the same for G1C C18U please
0.139

Please give the result for C18U A44C too.
0.146
